In this section we review reported absorption maximum values for a set of compounds.
EXPERIMENTAL_PROTOCOL: solvent given as SMILES
ASSAY_CONTEXT: in CCCCCC
Give the value in nm but do not write nm after it.

Q) Dear colleague, I am looking for the recorded absorption maximum of the following compound: F[B-]1(F)n2ccnc2-c2cccc[n+]21
A) 297

Q) Dear colleague, I am looking for the recorded absorption maximum of the following compound: COC(=O)C(Cc1ccc2oc(-c3ccc4c(c3)c3ccccc3n4-c3ccccc3)nc2c1)NC(=O)OC(C)(C)C (centres undefined)
A) 325.3

Q) Dear colleague, I am looking for the recorded absorption maximum of the following compound: CC1=[N+]2C(=C(c3ccc(N(C)C)cc3)c3ccc(C)n3[B-]2(F)F)C=C1
A) 507

Q) Dear colleague, I am looking for the recorded absorption maximum of the following compound: c1ccc(-c2ccc(-c3ccc(-n4c5ccccc5c5ccccc54)cc3)c3nsnc23)cc1
A) 394

Q) Dear colleague, I am looking for the recorded absorption maximum of the following compound: CN(C)c1ccc(/C=C/C=C/c2nc3ccccc3o2)cc1
A) 401

Q) Dear colleague, I am looking for the recorded absorption maximum of the following compound: COc1ccc2n1[B-](F)(F)[N+]1=C(SC#N)C=CC1=C2c1ccccc1
A) 517

Q) Dear colleague, I am looking for the recorded absorption maximum of the following compound: CCCCCCC(CCCCCC)N1C(=O)c2cccc3c(-c4ccc([Si](C)(C)C)cc4)ccc(c23)C1=O
A) 343.4

Q) Dear colleague, I am looking for the recorded absorption maximum of the following compound: CC1=CC(C)=[N+]2C1=C(c1ccc(-c3c4ccccc4c(-c4ccccc4)c4ccccc34)cc1)c1c(C)cc(C)n1[B-]2(F)F
A) 502

Q) Dear colleague, I am looking for the recorded absorption maximum of the following compound: CN(C)c1ccc(/C=C2/N=C(c3ccccc3)OC2=O)cc1
A) 443
